Test system: HEK293 ATCC CRL-1573 human embryonic kidney cells
Assay: CO-ADD cytotoxicity assay (resazurin)
Format: cell-based
Details: all concentrations examined (0.25-32 μg/mL), 20 h; CC50 could not be measured
MEASURED_PARAMETER: antiproliferative effect against HEK293 (in words)

| COMPOUND | READING |
| --- | --- |
| [K+].[K+].c1ccc2cc3c(cc2c1)[O][Ti-2]12([O]3)([O]c3cc4ccccc4cc3[O]1)[O]c1cc3ccccc3cc1[O]2 [Compound 8, K2[Ti(Naphthalene-2,3-diolate)3]] | inactive |
| O=C1CN2CCN3CC(=O)[O][Ti]([O]1)([O]c1ccccc1C2)[O]c1ccccc1C3 [Compound 11, Ti(HBED)] | inactive |

* * *

Test system: MRC-5 cells
Assay: MRC-5 cell viability, dose-response treatment, MTT assay
Assay type: cell-based, human
Details: pH 7.4; read-out: IC50 ± SD (µM), relative IC50

| COMPOUND | TARGET_OR_TEST_SYSTEM | IC50 |
| --- | --- | --- |
| O=C1[O][Ti-2]23([O]C(=O)c4ccccc4[O]2)([O]C(=O)c2ccccc2[O]3)[O]c2ccccc21.[Na+].[Na+] [Compound 12, Na2[Ti(Salicylate)3]] | MRC-5 cells | 8.6 µM |

* * *

System: C. albicans (ATCC 90028)
Test: CO-ADD antifungal assay, growth inhibition (OD630)
Type: cell-based, Candida albicans
Settings: predicted or measured MIC; ≥75% growth inhibition; up to 32 μg/mL, 36 h
MEASURED_PARAMETER: MIC C. albicans

| COMPOUND | MEASURED_PARAMETER | READING |
| --- | --- | --- |
| O=C1CN2CCN3CC(=O)[O][Ti]([O]1)([O]c1ccccc1C2)[O]c1ccccc1C3 | MIC C. albicans | >32 µg/mL |
| O=C(O)c1ccc(-n2nc3nc2-c2ccccc2[O][Ti]2([O]c4ccccc4-3)[O]c3ccccc3-c3nc(n(-c4ccc(C(=O)O)cc4)n3)-c3ccccc3[O]2)cc1 | MIC C. albicans | >32 µg/mL |
| O=C([O-])C(=O)O.O=C([O-])C(=O)O.[K+].[K+].[O]=[Ti] | MIC C. albicans | 32 µg/mL |
| [K+].[K+].c1ccc2cc3c(cc2c1)[O][Ti-2]12([O]3)([O]c3cc4ccccc4cc3[O]1)[O]c1cc3ccccc3cc1[O]2 [Compound 8, K2[Ti(Naphthalene-2,3-diolate)3]] | MIC C. albicans | >32 µg/mL |
| [Cl-].[Cl-].[Ti+4].c1cc[cH-]c1.c1cc[cH-]c1 [Compound 13, reference compound] | MIC C. albicans | >32 µg/mL |
| O=C1[O][Ti-2]23([O]C(=O)c4ccccc4[O]2)([O]C(=O)c2ccccc2[O]3)[O]c2ccccc21.[Na+].[Na+] [Compound 12, Na2[Ti(Salicylate)3]] | MIC C. albicans | >32 µg/mL |

* * *

Each entry below carries its recorded MIC S. aureus (MRSA).
Test system: S. aureus MRSA (ATCC 43300)
Test: CO-ADD antibacterial assay, growth inhibition (OD600)
Format: cell-based, Staphylococcus aureus
Settings: predicted or measured MIC; lowest concentration with ≥75% growth inhibition; 0.25-32 μg/mL, 18 h
Protocol: Dry compounds ranging from 1–2 mg were weighed into properly labeled Eppendorf tubes and sealed with parafilm. The compounds were used as received by the CO-ADD. For the screenings, most compounds were dissolved to a stock concentration of 10 mg/mL in DMSO. K2[Ti(Citrate)3], Na3Citrate, and K2[TiO(Oxalate)2] were dissolved in warm water. […] Samples were diluted in water to a final testing concentration of 32 µg/mL while keeping the final co-solvent concentration to a maximum of 0.5%. […]
MEASURED_PARAMETER: MIC S. aureus (MRSA)

| MOLECULE | READING |
| --- | --- |
| [Cl-].[Cl-].[Ti+4].c1cc[cH-]c1.c1cc[cH-]c1 [Compound 13, reference compound] | >32 µg/mL |
| O=C([O-])C(=O)O.O=C([O-])C(=O)O.[K+].[K+].[O]=[Ti] | >32 µg/mL |
| O=C(O)c1ccc(-n2nc3nc2-c2ccccc2[O][Ti]2([O]c4ccccc4-3)[O]c3ccccc3-c3nc(n(-c4ccc(C(=O)O)cc4)n3)-c3ccccc3[O]2)cc1 | 16 µg/mL |
| O=C1[O][Ti-2]23([O]C(=O)c4ccccc4[O]2)([O]C(=O)c2ccccc2[O]3)[O]c2ccccc21.[Na+].[Na+] [Compound 12, Na2[Ti(Salicylate)3]] | >32 µg/mL |
| [K+].[K+].c1ccc2cc3c(cc2c1)[O][Ti-2]12([O]3)([O]c3cc4ccccc4cc3[O]1)[O]c1cc3ccccc3cc1[O]2 [Compound 8, K2[Ti(Naphthalene-2,3-diolate)3]] | >32 µg/mL |
| O=C1CN2CCN3CC(=O)[O][Ti]([O]1)([O]c1ccccc1C2)[O]c1ccccc1C3 | >32 µg/mL |
